Value source: ChEMBL document CHEMBL4028872

experimental_system: Sodium- and chloride-dependent betaine transporter (Homo sapiens, UniProt P48065, I386F)
Sequence (P48065 whole entry I386F): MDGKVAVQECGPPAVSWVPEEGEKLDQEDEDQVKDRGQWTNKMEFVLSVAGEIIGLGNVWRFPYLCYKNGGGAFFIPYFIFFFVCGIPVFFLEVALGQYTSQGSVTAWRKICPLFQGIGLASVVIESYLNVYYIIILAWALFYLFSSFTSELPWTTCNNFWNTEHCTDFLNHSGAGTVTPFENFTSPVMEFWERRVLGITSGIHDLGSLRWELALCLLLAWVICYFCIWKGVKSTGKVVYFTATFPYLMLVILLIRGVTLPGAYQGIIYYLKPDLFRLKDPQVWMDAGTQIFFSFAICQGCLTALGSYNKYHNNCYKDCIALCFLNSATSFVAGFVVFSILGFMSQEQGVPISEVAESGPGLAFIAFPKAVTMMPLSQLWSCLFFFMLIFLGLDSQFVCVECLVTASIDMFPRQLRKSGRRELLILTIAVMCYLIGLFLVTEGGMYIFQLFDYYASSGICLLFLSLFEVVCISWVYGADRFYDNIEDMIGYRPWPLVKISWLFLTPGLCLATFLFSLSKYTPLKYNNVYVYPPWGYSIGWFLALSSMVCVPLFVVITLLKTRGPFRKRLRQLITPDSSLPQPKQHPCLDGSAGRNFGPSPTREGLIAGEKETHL
assay: Inhibition of human BGT1 I386F mutant expressed in tsA201 cells assessed as reduction in [3H]GABA uptake after 3 mins by scintillation counting method
Format: cell-based
condition_notes: read-out: IC50
pIC50: −log10 of the molar value.

{"chem_smiles": "O=C(NC1CCN(Cc2ccccc2)CC1)c1ccc(Cl)cc1Cl", "pIC50": 5.10}
{"chem_smiles": "O=C(NC1CCN(Cc2ccccc2)CC1)c1ccc(Cl)nc1Cl", "pIC50": 4.33}

* * *

experimental_system: Sodium- and chloride-dependent GABA transporter 2 (Homo sapiens)
Sequence (Q9NSD5 whole entry): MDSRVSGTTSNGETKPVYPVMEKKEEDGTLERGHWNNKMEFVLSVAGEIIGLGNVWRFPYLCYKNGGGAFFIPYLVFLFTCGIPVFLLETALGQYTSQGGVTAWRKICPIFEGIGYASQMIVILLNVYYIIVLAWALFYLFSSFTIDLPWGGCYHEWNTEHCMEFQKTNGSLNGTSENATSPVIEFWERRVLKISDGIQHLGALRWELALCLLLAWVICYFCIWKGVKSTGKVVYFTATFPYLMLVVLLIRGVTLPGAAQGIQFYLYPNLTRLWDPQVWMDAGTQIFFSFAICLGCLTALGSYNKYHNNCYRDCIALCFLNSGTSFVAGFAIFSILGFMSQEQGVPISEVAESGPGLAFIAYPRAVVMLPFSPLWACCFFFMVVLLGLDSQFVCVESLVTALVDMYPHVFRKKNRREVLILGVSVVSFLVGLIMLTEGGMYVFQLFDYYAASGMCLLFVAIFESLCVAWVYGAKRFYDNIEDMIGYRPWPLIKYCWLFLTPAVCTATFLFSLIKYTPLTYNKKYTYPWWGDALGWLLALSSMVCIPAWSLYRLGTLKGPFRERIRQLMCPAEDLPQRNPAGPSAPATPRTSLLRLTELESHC
assay: Inhibition of human GAT2 expresses in tsA201 cells assessed as reduction in [3H]GABA uptake after 3 mins by scintillation counting method
Format: cell-based
condition_notes: read-out: IC50

{"chem_smiles": "O=C(NC1CCN(Cc2cccnc2)CC1)c1ccc(Cl)cc1Cl", "IC50": "> 1000 µM"}
{"chem_smiles": "CC(C)C(=O)NC1CCN(Cc2ccccc2)CC1", "IC50": "> 1000 µM"}
{"chem_smiles": "CCCN1CCC(NC(=O)c2ccc(Cl)cc2Cl)CC1", "IC50": "> 1000 µM"}
{"chem_smiles": "N#Cc1ccc(CN2CCC(NC(=O)c3ccc(Cl)cc3Cl)CC2)cc1", "IC50": "> 50 µM"}
{"chem_smiles": "O=C(NC1CCN(Cc2ccc(I)cc2)CC1)c1ccc(Cl)cc1Cl", "IC50": "> 100 µM"}
{"chem_smiles": "O=C(NC1CCN(Cc2ccccn2)CC1)c1ccc(Cl)cc1Cl", "IC50": "> 1000 µM"}

* * *

experimental_system: Sodium- and chloride-dependent GABA transporter 3 (Homo sapiens, UniProt P48066)
Sequence (P48066 whole entry): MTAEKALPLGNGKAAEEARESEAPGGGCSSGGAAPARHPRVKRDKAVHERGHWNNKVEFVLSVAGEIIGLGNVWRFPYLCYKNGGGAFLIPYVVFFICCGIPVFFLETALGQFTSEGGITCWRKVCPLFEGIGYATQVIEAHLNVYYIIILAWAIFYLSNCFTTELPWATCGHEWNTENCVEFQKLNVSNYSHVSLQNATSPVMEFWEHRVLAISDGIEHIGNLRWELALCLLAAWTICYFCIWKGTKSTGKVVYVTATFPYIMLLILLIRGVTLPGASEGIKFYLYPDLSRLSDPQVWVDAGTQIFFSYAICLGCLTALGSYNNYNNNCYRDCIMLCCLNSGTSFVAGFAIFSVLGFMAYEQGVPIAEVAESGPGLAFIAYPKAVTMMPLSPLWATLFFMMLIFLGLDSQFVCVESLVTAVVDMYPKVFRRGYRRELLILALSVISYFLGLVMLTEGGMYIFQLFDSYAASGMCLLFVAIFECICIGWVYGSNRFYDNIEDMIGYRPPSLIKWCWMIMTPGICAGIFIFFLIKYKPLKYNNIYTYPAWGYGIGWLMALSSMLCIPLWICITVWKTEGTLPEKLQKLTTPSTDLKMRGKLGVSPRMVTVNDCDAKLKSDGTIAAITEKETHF
assay: Inhibition of human GAT3 expresses in tsA201 cells assessed as reduction in [3H]GABA uptake after 3 mins by scintillation counting method
Format: cell-based
condition_notes: read-out: IC50
assay_metric: IC50

{"chem_smiles": "O=C(NC1CCN(Cc2ccncc2)CC1)c1ccc(Cl)cc1Cl", "reported_result": "> 1000 µM"}
{"chem_smiles": "CCOP(=O)(CCCN1CCC(NC(=O)c2ccc(Cl)cc2Cl)CC1)OCC", "reported_result": "> 1000 µM"}
{"chem_smiles": "O=C(NC1CCN(Cc2ccc3ccccc3n2)CC1)c1ccc(Cl)cc1Cl", "reported_result": "> 50 µM"}
{"chem_smiles": "O=C(NC1CCN(Cc2ccccc2)CC1)c1ccccc1", "reported_result": "> 1000 µM"}
{"chem_smiles": "CN1CCC(NC(=O)c2ccc(Cl)cc2Cl)CC1", "reported_result": "> 1000 µM"}
{"chem_smiles": "O=C(NC1CCN(Cc2ccccn2)CC1)c1ccc(Cl)cc1Cl", "reported_result": "> 1000 µM"}
{"chem_smiles": "COC(=O)c1ccc(CN2CCC(NC(=O)c3ccc(Cl)cc3Cl)CC2)cc1", "reported_result": "> 100 µM"}
{"chem_smiles": "O=C(NC1CCN(Cc2cccnc2)CC1)c1ccc(Cl)cc1Cl", "reported_result": "> 1000 µM"}
{"chem_smiles": "COc1cccc(C(=O)NC2CCN(Cc3ccccc3)CC2)c1OC", "reported_result": "> 500 µM"}
{"chem_smiles": "O=C(NC1CCN(Cc2ccc3ccccc3c2)CC1)c1ccc(Cl)cc1Cl", "reported_result": "> 50 µM"}
{"chem_smiles": "O=C(O)CN1CCC(NC(=O)c2ccc(Cl)cc2Cl)CC1", "reported_result": "> 1000 µM"}
